Target: T1, Human MuSK (R&D Systems, cat. 10189-MK, histidine tag) (human, UniProt O15146 24-495)
T1 construct: Bought protein; also called human monomeric MuSK-6xhis; not shown: histidine tag (6xhis)
T1 sequence: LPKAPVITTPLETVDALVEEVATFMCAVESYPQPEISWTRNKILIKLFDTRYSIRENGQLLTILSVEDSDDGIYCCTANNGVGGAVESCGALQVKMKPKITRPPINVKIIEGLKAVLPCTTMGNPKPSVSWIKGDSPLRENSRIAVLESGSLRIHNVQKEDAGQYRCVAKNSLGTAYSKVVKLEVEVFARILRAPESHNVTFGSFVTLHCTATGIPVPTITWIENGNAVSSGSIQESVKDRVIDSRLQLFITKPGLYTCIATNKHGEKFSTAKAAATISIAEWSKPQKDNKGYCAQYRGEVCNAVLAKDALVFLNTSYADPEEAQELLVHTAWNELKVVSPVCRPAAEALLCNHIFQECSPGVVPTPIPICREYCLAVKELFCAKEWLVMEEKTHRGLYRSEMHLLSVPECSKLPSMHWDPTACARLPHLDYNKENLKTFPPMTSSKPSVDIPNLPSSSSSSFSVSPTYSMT
Assay: SPR (Biacore), antibody captured on anti-hFc chip; 0.3125 nM; dissociation pH 7.4
Recorded measurements of koff, one per entry
I only need the number, in s⁻¹, no unit after it.

Below, each entry is followed by its recorded koff result.
3D10a (antibody, human IgG1, kappa, L234A L235A, V domains shown) VH: EVQLVESGGGLVKPGGSLRLSCAASGFTFSASTMAWVRQAPGKGLEWVSSVSGDSHHIYYADSLKGRFTISRDNAKNSLYLQMNSLRAEDTAVYYCARERLLRLGVGFDSWGQGTLVTVSS VL: DIQMTQSPSSLSASVGDRVTITCRASQRISGFVNWYQQKPGKAPKLLIYAASTLQSGVPSRFSGSGSGTDFTLTISSLQPEDFATYYCQQSYSPLYTFGQGTKLEIKR ... 0.00018
3D9b (antibody, human IgG1, kappa, L234A L235A, V domains shown) VH: EVQLVESGGGLVKPGGSLRLSCAASGFTFSTYTMHWVRQAPGKGLEWVSSISSRSAYKYYADSVKGRFTISRDNAKNSLYLQMNSLRAEDTAVYYCARDFFQLGPPRFDSWGQGTLVTVSS VL: DIQMTQSPSSLSASVGDRVTITCRASQRISSFLNWYQQKPGKAPKLLIYGASNLQSGVPSRFSGSGSGTDFTLTISSLQPEDFATYYCQQSYSPSYTFGQGTKLEIKR ... 0.00018

Looking up 4D3 (antibody, human IgG1, kappa, L234A L235A, V domains shown) VH: EVQLVESGGGLVKPGGSLRLSCAASGFTFSSYTMTWVRQAPGKGLEWVSSISSGGHYIYYTDSLKGRFTISRDNAKNSLYLQMNSLRAEDTAVYYCARERLLRLGVGFDFWGQGTLVTVSS VL: DIQMTQSPSSLSASVGDRVTITCRASQSISGYLNWYQQKPGKAPKLLIYAASTLQSGVPSRFSGSGSGTDFTLTISSLQPEDFATYYCQQSYSALYTFGQGTKLEIKR , I found its koff recorded as 0.00013

So, 3F6c (antibody, human IgG1, kappa, L234A L235A, V domains shown) VH: EVQLVESGGGLVKPGGSLRLSCAASGFTFSSYTMDWVRQAPGKGLEWVSSIGSNGDYIYYADSVRGRFTISRDNAKNSLYLQMNSLRAEDTAVYYCARGQLAVAGTHFDYWGQGTLVTVSS VL: DIQMTQSPSSLSASVGDRVTITCRASQKVNKYVNWYQQKPGKAPKLLIYAASTLQSGVPSRFSGSGSGTDFTLTISSLQPEDFATYYCQQSYSPLSTFGQGTKLEIKR ? Its koff was 0.00015
